system: Rat pituitaries (growth hormone release); assay: In vitro inhibition of growth hormone release from cultured rat pituitary cells; type: cell-based; conditions: multiples or fractions of the effect of somatostatin (= 1), fiducial limits in parentheses, 4 hours incubation, radioimmunoassay
Non-standard residues stand in square brackets, D forms with d. Residues, ends and D or L forms follow the SMILES beside them. Orn = NCCC[C@H](N)C(=O)O; Abu = CC[C@H](N)C(=O)O
Recorded Growth Hormone Release Inhibition In Vitro for the following molecules
Reported metric: Growth Hormone Release Inhibition In Vitro

Molecule: CC[C@@H]1NC(=O)[C@H](CCCCN)NC(=O)[C@@H](Cc2c[nH]c3ccccc23)NC(=O)[C@H](Cc2ccccc2)NC(=O)[C@@H]2CCCN2C(=O)[C@H](Cc2ccccc2)NC1=O [Cyclo(Pro-Phe-D-Trp-Lys-α-ABU-Phe)] (cyclo([Abu]FPF[dW]K))
Measured value: 0.82 (0.57-1.18)
--
Molecule: C[C@@H](O)[C@@H]1NC(=O)[C@H](CCCN)NC(=O)[C@@H](Cc2c[nH]c3ccccc23)NC(=O)[C@H](Cc2ccccc2)NC(=O)[C@@H]2CCCN2C(=O)[C@H](Cc2ccccc2)NC1=O [Cyclo(Pro-Phe-D-Trp-Orn-Thr-Phe)] (cyclo(FPF[dW][Orn]T))
Measured value: 0.16(0.15-0.17)
--
Molecule: C[C@@H](O)[C@@H]1NC(=O)[C@H](CCCCN)NC(=O)[C@@H](Cc2c[nH]c3ccccc23)NC(=O)[C@H](Cc2ccccc2)NC(=O)[C@@H]2CCCN2C(=O)[C@H](Cc2ccccc2)NC1=O [Cyclo(Pro-Phe-D-Trp-Lys-Thr-Phe)] (cyclo(PF[dW]KTF))
Measured value: 1.71 (1.31-2.32)
--
Molecule: NCCCC[C@@H]1NC(=O)[C@@H](Cc2c[nH]c3ccccc23)NC(=O)[C@H](Cc2ccccc2)NC(=O)[C@@H]2CCCN2C(=O)[C@H](Cc2ccccc2)NC(=O)[C@H](CO)NC1=O [Cyclo(Pro-Phe-D-Trp-Lys-ser-Phe)] (cyclo(FPF[dW]KS))
Measured value: 1.4 (1.1-1.7)

====

tested on: Rat pituitaries (growth hormone release); experiment: In vitro inhibition of growth hormone release from cultured rat pituitary cells; format: cell-based; settings: multiples or fractions of the effect of somatostatin (= 1), fiducial limits in parentheses, 4 hours incubation, radioimmunoassay
Non-standard residues stand in square brackets, D forms with d. Residues, ends and D or L forms follow the SMILES beside them. dTrp(5-F) = N[C@H](Cc1c[nH]c2ccc(F)cc12)C(=O)O
Reported metric: Growth Hormone Release Inhibition In Vitro

Molecule: C[C@@H](O)[C@@H]1NC(=O)[C@H](CCCCN)NC(=O)[C@@H](Cc2c[nH]c3ccccc23)NC(=O)[C@H](Cc2ccc(O)cc2)NC(=O)[C@@H]2CCCN2C(=O)[C@H](Cc2ccccc2)NC1=O [Cyclo(Pro-Tyr-D-Trp-Lys-Thr-Phe)] (cyclo(FPY[dW]KT))
Target or system: Rat pituitaries (growth hormone release)
Measured value: 14.3 (8.3-33.0)

Molecule: CC(C)C[C@@H]1NC(=O)[C@@H]2CCCN2C(=O)[C@H](Cc2ccccc2)NC(=O)[C@H]([C@@H](C)O)NC(=O)[C@H](CCCCN)NC(=O)[C@@H](Cc2c[nH]c3ccccc23)NC1=O [Cyclo(Pro-Leu-D-Trp-Lys-Thr-Phe)] (cyclo(FPL[dW]KT))
Target or system: Rat pituitaries (growth hormone release)
Measured value: 0.29 (0.13-0.57)

Molecule: C[C@@H](O)[C@@H]1NC(=O)[C@H](CCCCN)NC(=O)[C@@H](Cc2c[nH]c3ccc(F)cc23)NC(=O)[C@H](Cc2ccccc2)NC(=O)[C@@H]2CCCN2C(=O)[C@H](Cc2ccccc2)NC1=O [Cyclo(Pro-Phe-D-5F-Trp-Lys-Thr-Phe)] (cyclo(FPF[dTrp(5-F)]KT))
Target or system: Rat pituitaries (growth hormone release)
Measured value: 2.4 (2.1-2.8)

Molecule: CC(C)C[C@@H]1NC(=O)[C@H]([C@@H](C)O)NC(=O)[C@H](CCCCN)NC(=O)[C@@H](Cc2c[nH]c3ccccc23)NC(=O)[C@H](Cc2ccccc2)NC(=O)[C@@H]2CCCN2C1=O [Cyclo(Pro-Phe-D-Trp-Lys-Thr-Leu)] (cyclo(F[dW]KTLP))
Target or system: Rat pituitaries (growth hormone release)
Measured value: 0.16 (0.07-0.33)

Molecule: C[C@@H](O)[C@@H]1NC(=O)[C@H](CCCCN)NC(=O)[C@H](Cc2c[nH]c3ccccc23)NC(=O)[C@H](Cc2ccccc2)NC(=O)[C@@H]2CCCN2C(=O)[C@H](Cc2ccccc2)NC1=O [Cyclo(Pro-Phe-L-Trp-Lys-Thr-Phe)] (cyclo(FPFWKT))
Target or system: Rat pituitaries (growth hormone release)
Measured value: 1.59 (1.33-1.92)

Molecule: C[C@@H]1NC(=O)[C@@H]2CCCN2C(=O)[C@H](Cc2ccccc2)NC(=O)[C@H]([C@@H](C)O)NC(=O)[C@H](CCCCN)NC(=O)[C@@H](Cc2c[nH]c3ccccc23)NC1=O [Cyclo(Pro-Ala-d-Trp-Lys-Thr-Phe)] (cyclo(A[dW]KTFP))
Target or system: Rat pituitaries (growth hormone release)
Measured value: 0.19 (0.1-0.38)
